Collected pIC50 for ROCK2 (Homo sapiens, UniProt O75116) across several studies; compounds listed below.
pIC50: −log10 of the molar value.

{"compound": "COc1cc(-n2ncn(Cc3ccccc3)c2=O)ccc1-c1cn[nH]c1", "qualifierOperator": ">", "pIC50": 8.30}
{"compound": "COc1cc(N2CCC3(CCN(C(=O)c4cc5n(n4)CCNC5=O)CC3)C2=O)ccc1-c1cn[nH]c1", "qualifierOperator": "=", "pIC50": 8.22}
{"compound": "CN(C(=O)c1cc2ccc(-c3nccc(Nc4ccc(-c5cn[nH]c5)cc4)n3)cc2[nH]1)C1CC(O)C1 (stereo not shown)", "qualifierOperator": "=", "pIC50": 6.57}
{"compound": "CCN1CCC2(CC1)CN(c1ccc(-c3cn[nH]c3)cc1)C(=O)N2Cc1cccc(OC)c1", "qualifierOperator": ">", "pIC50": 8.52}
{"compound": "Cc1sc2cc(C(N)=O)c(O[C@H]3C[C@@]4(C[C@H](NC(=O)c5nnc(NCC(C)C)s5)C4)C3)nc2c1C (stereo partly shown)", "qualifierOperator": "=", "pIC50": 6.79}
